- System Under Test: KRAS-G12C (C51S/C80L/C118S) (Homo sapiens, UniProt P01116, C118S/C51S/C80L/G12C)
- Construct: N-terminal biotin-acceptor peptide […]
- Sequence (P01116 with tags, fused parts or gaps isoform P01116-2 G12C/C51S/C80L/C118S): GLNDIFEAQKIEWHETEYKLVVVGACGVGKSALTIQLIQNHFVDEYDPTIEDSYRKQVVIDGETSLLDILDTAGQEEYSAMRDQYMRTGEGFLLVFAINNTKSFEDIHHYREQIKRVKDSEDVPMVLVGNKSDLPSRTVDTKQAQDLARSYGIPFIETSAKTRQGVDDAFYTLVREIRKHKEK
- Test Name: SOS-catalyzed nucleotide exchange assay (Procedure A, TR-FRET)
- Condition Parameters: 60 min preincubation, SOS + GTP, read-out: KRAS G12C GNE IC50
- Procedure: Procedure for SOS-Catalyzed Nucleotide Exchange Assay for KRAS-G12C/D/V, G13D, HRAS, and NRAS (Procedure A) […] The time-resolved fluorescence resonance energy transfer (TR-FRET) signal is measured on an Envision (PerkinElmer) plate reader: Excitation filter=340 nm; emission1=495 nm; emission2=520 nm; dichroic mirror=D400/D505; delay time=[…]. The signal of each well is determined as the ratio of the emission at 520 nm to that at 495 nm. […]
Parameter: pIC50
Conceptually, pIC50 converts a concentration in mol/L into minus its log10.

Sure, the documented pIC50 for CC(C)(C)NC[C@@]1(COc2nc(N3CCCOCC3)c3cc(Cl)c(-c4ccc(F)c5sc(N)c(C#N)c45)c(F)c3n2)CC1(F)F [compound 25] is 7.54

Sure, the documented pIC50 for CC1CN(c2nc(OC[C@@]34CCCN3C[C@H](F)C4)nc3c(F)c(-c4ccc(F)c5sc(N)c(C#N)c45)c(Cl)cc23)CCCO1 (stereo partly drawn) [compound 9] is 7.64

Sure, the documented pIC50 for Cc1cc2[nH]ncc2c(-c2c(F)cc3c(N4CCCOCC4)nc(OC[C@@]45CCCN4C[C@H](F)C5)nc3c2F)c1C(F)(F)F [Ex. 44] is 7.02

Sure, the documented pIC50 for CC1COCCCN1c1nc(OC[C@@]23CCCN2C[C@H](F)C3)nc2c(F)c(-c3ccc(F)c4sc(N)c(C#N)c34)c(Cl)cc12 (stereo partly drawn) [compound 5] is 7.74

Sure, the documented pIC50 for N#Cc1c(N)sc2c(F)ccc(-c3c(Cl)cc4c(N5CCOCC(F)(F)C5)nc(OC[C@@]56CCCN5C[C@H](F)C6)nc4c3F)c12 [compound 12] is 7.71

Sure, the documented pIC50 for N#Cc1c(N)sc2c(F)ccc(-c3c(Cl)cc4c(N5CCOCC(F)C5)nc(OC[C@@]56CCCN5C[C@H](F)C6)nc4c3F)c12 (stereo partly drawn) [compound 11] is 7.74

Just for reference, patent US20260083750A1 is where these values come from.
